# Test system: NMC-G1 (Low Grade Glioma);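 further: after 72 h of two-drug dosing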
# assay-method-text: Bliss excess, mean over the matrix (fraction); higher = more synergy
Please provide measured Bliss excess for the entries that follow.

Quick one: Bliss excess for CC1(C)CCC(CN2CCN(c3ccc(C(=O)NS(=O)(=O)c4ccc(NCC5CCOCC5)c([N+](=O)[O-])c4)c(Oc4cnc5[nH]ccc5c4)c3)CC2)=C(c2ccc(Cl)cc2)C1 [Venetoclax] + C[C@@H]1COCCN1C2=NC(=NC(=C2)C3(CC3)[S@](=N)(=O)C)C4=C5C=CNC5=NC=C4 [AZD6738] (first compound max 1 µM, 7x7, partner max 10 µM) ?
-0.0032

Need Bliss excess, item Cc1cc2ncnn2cc1Nc1ncc2c(n1)n(C1CCOCC1)c(=O)n2C [AZD7648] + CN(C)CCCOc1ccc(-c2ccc3ncc4c(c3c2)n(C2CCOCC2)c(=O)n4C)cn1 [AZD0156] (first compound max 10 µM, 7x7, partner max 1 µM)
-0.0497

I would be grateful if you could share the reported Bliss excess for Cc1c2c(nn1C)CSCc1cc(n(C)n1)CSc1cc(c3ccccc3c1)OCCCc1c(C(=O)O)n(C)c3c-2c(Cl)ccc13 [AZD5991] + CCN(CCO)CCCOc1ccc2c(Nc3cc(CC(=O)Nc4cccc(F)c4)[nH]n3)ncnc2c1 [AZD2811] (first compound max 1 µM, 7x7, partner max 1 µM) .
0.0152
